B1: IKZF1 (parent)
chain: HIKLHSGEKPFKCHLCNYACRRRD

Variants of: B1
Experiment: protein stability index of a GFP-peptide fusion (GPS, HEK-293T) (PSI 1-6); higher = more stable;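 also: lentivirally expressed fusions sorted by FACS into six bins by GFP to DsRed ratio, PSI derived from sequencing read proportions per bin multiplied by bin number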
Conditions: c terminus: a fixed tail appended
Response key: satisfied means protein stability index >= 2; not satisfied means protein stability index < 2.

- changes: "K3W"
  assigned category: "satisfied"
- changes: "A19R"
  assigned category: "satisfied"
- changes: "H1D"
  assigned category: "not satisfied"
- changes: "A19N"
  assigned category: "satisfied"
- changes: "E8R"
  assigned category: "not satisfied"
- changes: "R23C"
  assigned category: "satisfied"
- changes: "L15V"
  assigned category: "not satisfied"
- changes: "Y18W"
  assigned category: "not satisfied"
- changes: "C20V"
  assigned category: "satisfied"
- changes: "C13R"
  assigned category: "satisfied"
- changes: "Y18F"
  assigned category: "satisfied"
- changes: "R22H"
  assigned category: "satisfied"
- changes: "G7D"
  assigned category: "satisfied"
- changes: "P10M"
  assigned category: "not satisfied"
- changes: "R22Q"
  assigned category: "satisfied"
- changes: "A19S"
  assigned category: "not satisfied"
- changes: "Y18G"
  assigned category: "satisfied"
- changes: "S6I"
  assigned category: "satisfied"
- changes: "E8P"
  assigned category: "satisfied"
- changes: "H14D"
  assigned category: "satisfied"
- changes: "D24Y"
  assigned category: "not satisfied"
- changes: "I2D"
  assigned category: "satisfied"
- changes: "E8V"
  assigned category: "satisfied"
- changes: "G7R"
  assigned category: "satisfied"
- changes: "Y18L"
  assigned category: "satisfied"
- changes: "E8K"
  assigned category: "not satisfied"
- changes: "C20E"
  assigned category: "not satisfied"
- changes: "C20F"
  assigned category: "satisfied"
- changes: "G7L"
  assigned category: "not satisfied"
- changes: "N17Y"
  assigned category: "not satisfied"
- changes: "N17C"
  assigned category: "not satisfied"
- changes: "S6E"
  assigned category: "satisfied"
- changes: "N17P"
  assigned category: "not satisfied"
- changes: "S6Y"
  assigned category: "not satisfied"
- changes: "Y18T"
  assigned category: "not satisfied"
- changes: "H14V"
  assigned category: "satisfied"
- changes: "C13D"
  assigned category: "satisfied"
- changes: "I2Q"
  assigned category: "satisfied"
- changes: "C20Q"
  assigned category: "satisfied"
- changes: "N17D"
  assigned category: "not satisfied"
- changes: "D24P"
  assigned category: "satisfied"
- changes: "C16I"
  assigned category: "satisfied"
- changes: "K9Q"
  assigned category: "not satisfied"
- changes: "A19Q"
  assigned category: "not satisfied"
- changes: "C16H"
  assigned category: "satisfied"
- changes: "L4C"
  assigned category: "satisfied"
- changes: "D24F"
  assigned category: "satisfied"
- changes: "P10L"
  assigned category: "not satisfied"
- changes: "S6Q"
  assigned category: "not satisfied"
- changes: "P10Y"
  assigned category: "satisfied"
- changes: "G7Y"
  assigned category: "satisfied"
- changes: "Y18D"
  assigned category: "satisfied"
- changes: "N17T"
  assigned category: "satisfied"
- changes: "C20K"
  assigned category: "not satisfied"
- changes: "R23S"
  assigned category: "not satisfied"
- changes: "H5R"
  assigned category: "not satisfied"
- changes: "H14K"
  assigned category: "satisfied"
- changes: "K9Y"
  assigned category: "not satisfied"
- changes: "H5G"
  assigned category: "satisfied"
- changes: "G7F"
  assigned category: "satisfied"
- changes: "H5M"
  assigned category: "satisfied"
- changes: "K3M"
  assigned category: "not satisfied"
- changes: "R22D"
  assigned category: "not satisfied"
- changes: "H1V"
  assigned category: "not satisfied"
- changes: "F11M"
  assigned category: "satisfied"
- changes: "C16D"
  assigned category: "satisfied"
- changes: "R22W"
  assigned category: "satisfied"
- changes: "H1W"
  assigned category: "not satisfied"
- changes: "R22A"
  assigned category: "not satisfied"
- changes: "H14S"
  assigned category: "satisfied"
- changes: "C13T"
  assigned category: "satisfied"
- changes: "H14R"
  assigned category: "satisfied"
- changes: "C13W"
  assigned category: "satisfied"
- changes: "S6C"
  assigned category: "not satisfied"
- changes: "L15G"
  assigned category: "satisfied"
- changes: "L15N"
  assigned category: "satisfied"
- changes: "A19K"
  assigned category: "satisfied"
- changes: "C13E"
  assigned category: "satisfied"
- changes: "L4K"
  assigned category: "satisfied"
- changes: "G7N"
  assigned category: "not satisfied"
- changes: "K9D"
  assigned category: "satisfied"
- changes: "R23W"
  assigned category: "satisfied"
- changes: "C20L"
  assigned category: "not satisfied"
- changes: "L15P"
  assigned category: "satisfied"
